Reported GI50 values are given for each entry in this list.
Test system: UO-31
Assay: NCI tumour cell line growth inhibition, 48 h
Active and inactive are the calls of the source. Rule as the data show it: active = GI50 up to about 1.1 µM and inactive = higher.
outcomeMeasure: GI50

{"compound": "O=C(CCc1nnc2s/c(=C\\c3ccc(Cl)c(Cl)c3)c(=O)n12)Nc1ccc(Cl)c(Cl)c1", "outcomeMeasure": "GI50", "result": "> 100 µM (inactive)"}
{"compound": "COc1ccc(N2C(=O)C3c4[nH]c5cccc(Cl)c5c4C4CCC(C(C)(C)C)CC4C3C2=O)cc1 (centres undefined)", "outcomeMeasure": "GI50", "result": "> 100 µM (inactive)"}
{"compound": "CCCCCCCCC[C@@H]1CC(=O)OCC2OC(O[C@H](CCCCCCCCC)CC(=O)OCC3OC(O[C@H](CCCCCCCCC)CC(=O)OCC4OC(O1)C(O)C(O)C4O)C(O)C(O)C3O)C(O)C(O)C2O (some centres undefined)", "outcomeMeasure": "GI50", "result": "9.4 µM (inactive)"}
{"compound": "Nc1c(C(=O)O)nnc2cc(Cl)c(Cl)cc12", "outcomeMeasure": "GI50", "result": "56.9 µM (inactive)"}
{"compound": "CCOC(=O)c1nc2ccc(C(F)(F)F)cc2nc1NCc1cc(OC)c(OC)c(OC)c1", "outcomeMeasure": "GI50", "result": "35.3 µM (inactive)"}
{"compound": "CCCCc1ccc(NC(=N)N)cc1", "outcomeMeasure": "GI50", "result": "33.6 µM (inactive)"}
{"compound": "C[C@@H]1OCC(O)C([C@H]2OC(c3ccccc3)=N[C@H]2CO)O1 (some centres undefined)", "outcomeMeasure": "GI50", "result": "> 100 µM (inactive)"}
{"compound": "NC(=O)CCC(NC(=O)c1c2ccccc2nc2ccccc12)C(=O)O (centres undefined)", "outcomeMeasure": "GI50", "result": "> 100 µM (inactive)"}
{"compound": "COc1ccc(C(C#N)NNC(=O)c2ccccc2O)cc1OC (centres undefined)", "outcomeMeasure": "GI50", "result": "0.379 µM (active)"}

====

Quick reference: GI50 of the listed items.
Tested on: Hs-578T
Test: NCI tumour cell line growth inhibition, 48 h
Active and inactive are the calls of the source. Rule as the data show it: active = GI50 up to about 1.1 µM and inactive = higher.

{"molecule": "COC(=O)[C@@H](COC(=O)/C=C/c1ccc(OC(C)=O)c(OC(C)=O)c1)NC(=O)/C=C/c1ccc(OC(C)=O)c(OC(C)=O)c1", "GI50": "25.2 µM (inactive)"}
{"molecule": "CCOC(=O)c1nc2c(Cl)c3ncccc3cc2[nH]c1=O", "GI50": "31.7 µM (inactive)"}
{"molecule": "CS(=O)(=O)N(CC(=O)O)Cc1ccccc1", "GI50": "> 100 µM (inactive)"}
{"molecule": "CCOC(=O)/C=C(/C(=O)OCC)n1cnc2c(=O)[nH]c(NC(C)=O)nc21", "GI50": "> 100 µM (inactive)"}
{"molecule": "CC1(C)C2CCC1C(=O)C(C=O)C2 (stereo not given)", "GI50": "> 100 µM (inactive)"}

====

Tested on: DU-145
Assay: NCI tumour cell line growth inhibition, 48 h
Calls of active or inactive are those of the source. No stated cut-off is given here; in the data, active = GI50 up to about 1.1 µM and inactive = higher.
Below: a set of entries, each annotated with reported GI50.

{"compound": "CN1CN(c2ccccc2)C2(CCN(CCCN(C)c3ccc(F)cc3)CC2)C1=O", "systemTested": "DU-145", "GI50": "23.9 µM (inactive)"}
{"compound": "CC1(C)N=C(N)N=C(N)N1c1cccc(OCCOc2ccc([N+](=O)[O-])cc2)c1", "systemTested": "DU-145", "GI50": "20.1 µM (inactive)"}
{"compound": "S=c1[nH]c2c(Cl)c(Cl)c(Cl)c(Cl)c2[nH]1", "systemTested": "DU-145", "GI50": "36.1 µM (inactive)"}
{"compound": "COC(=O)N/N=C(\\c1ccccc1)c1ccc(OC)cc1", "systemTested": "DU-145", "GI50": "> 100 µM (inactive)"}
{"compound": "CCOC(=O)C(NC(=O)c1ccccc1)(c1ccc(S(=O)(=O)Nc2onc(C)c2C)cc1)C(F)(F)F (stereo not given)", "systemTested": "DU-145", "GI50": "> 100 µM (inactive)"}
{"compound": "CCCC[C@H]1CCN2C[C@@H](O)[C@@H](O)[C@H]2[C@@H]1O", "systemTested": "DU-145", "GI50": "> 100 µM (inactive)"}
{"compound": "COc1ccc(OC2OC(CO)C(O)C(O)C2O)cc1 (stereo not given)", "systemTested": "DU-145", "GI50": "> 100 µM (inactive)"}
{"compound": "CN(C)CCCNC(=O)CNC(=O)c1cc(NC(=O)c2cc(NC(=O)c3cc(NC(=O)CCNC(=O)c4cc(NC(=O)c5cc(NC(=O)c6nccn6C)cn5C)cn4C)cn3C)cn2C)cn1C", "systemTested": "DU-145", "GI50": "> 100 µM (inactive)"}
{"compound": "COS(C)(=O)=O [METHANESULFONIC ACID METHYL ESTER]", "systemTested": "DU-145", "GI50": "> 2 µM (inactive)"}
{"compound": "Cc1nc2ccccc2c(=O)n1NC(=O)c1ccccc1O", "systemTested": "DU-145", "GI50": "> 100 µM (inactive)"}

====

Test system: TK-10
Test: NCI tumour cell line growth inhibition, 48 h
The source made the active and inactive calls. Rule as the data show it: active = GI50 up to about 1.1 µM and inactive = higher.
outcomeMeasure: GI50

{"compound": "N#Cc1c(OCCF)c2ccccc2n2c1nc1ccccc12", "outcomeMeasure": "GI50", "result": "31.1 µM (inactive)"}
{"compound": "COCCCNc1nc(N)c(C#N)c(C#N)c1C#N", "outcomeMeasure": "GI50", "result": "> 10 µM (inactive)"}
{"compound": "COCCOCOC(C)(C)[C@H](CCOC(C)=O)O[Si](c1ccccc1)(c1ccccc1)C(C)(C)C", "outcomeMeasure": "GI50", "result": "22.8 µM (inactive)"}
{"compound": "COc1ccccc1-c1nc(-c2ccccc2O)n[nH]1", "outcomeMeasure": "GI50", "result": "> 100 µM (inactive)"}
{"compound": "COc1ccc2c3c1OC1C(=O)C=CC4(CC2)N(C)CCC314 (stereo unspecified)", "outcomeMeasure": "GI50", "result": "27.3 µM (inactive)"}
{"compound": "CC1CC(C2=CC=CCS2)=Nc2ccccc2S1 (stereo unspecified)", "outcomeMeasure": "GI50", "result": "> 100 µM (inactive)"}

====

Tested on: UACC-257
Experiment: NCI tumour cell line growth inhibition, 48 h
The source made the active and inactive calls. Rule as the data show it: active = GI50 up to about 1.1 µM and inactive = higher.

{"compound": "Cc1[nH]c(=O)c2oc3cc4ccccc4cc3c2c1C(=O)O", "GI50": "> 10 µM (inactive)"}
{"compound": "CCCCCCCCCCCCCCCC[N+](C)(C)CCl", "GI50": "4.71 µM (inactive)"}
{"compound": "CC(=O)OC1CC2C(C)(C)C(=O)C=C[C@]2(C)C2CCC3(C)C(c4ccoc4)[C@@H](O)[C@H]4O[C@]43[C@]12C (stereo partly specified)", "GI50": "21.4 µM (inactive)"}
{"compound": "CCOc1ccccc1NC(=O)C(=O)Cc1nc2ccccc2s1", "GI50": "> 100 µM (inactive)"}
{"compound": "C=C1C(O)C2OC(=O)C(=C)C2C(OC(=O)/C(C)=C/C)CC2(C)OC2C2OC12 (stereo unspecified)", "GI50": "15.7 µM (inactive)"}
{"compound": "CC1(C)[N+]([O-])=[N+]([O-])C1(C)O (stereo unspecified)", "GI50": "> 100 µM (inactive)"}

====

Test system: OVCAR-8
Experiment: NCI tumour cell line growth inhibition, 48 h
Where a name gives a salt, the structure may show the parent alone. Active and inactive are the calls of the source. Rule as the data show it: active = GI50 up to about 1.1 µM and inactive = higher.

{"compound": "O=c1ccn([C@@H]2O[C@H](CO)[C@@H](O)[C@H]2F)c(=O)[nH]1", "GI50": "> 100 µM (inactive)"}
{"compound": "COc1ccc(C(C#N)NNC(=O)c2ccccc2O)cc1OC (configuration not stated)", "GI50": "1.46 µM (inactive)"}
{"compound": "CC(C)(C)O/C=C1/C(=O)OC2C[C@@H](O[Si](C)(C)C(C)(C)C)CC12 (some centres not stated)", "GI50": "48.1 µM (inactive)"}
{"compound": "O=C(CNc1nccs1)Nn1cnc2ccc(S(=O)(=O)Nc3nccs3)cc2c1=O", "GI50": "> 100 µM (inactive)"}
{"compound": "O=C1CCCC/C1=C(\\Br)I", "GI50": "14.5 µM (inactive)"}
{"compound": "Nc1ccc2nc3n(c2c1)C(=O)c1ccccc1-3", "GI50": "> 100 µM (inactive)"}
{"compound": "C/C(=N\\N=C(\\N)OB(F)F)c1ccccn1", "GI50": "75 µM (inactive)"}
{"compound": "COC(=O)N/N=C(\\c1ccccc1)c1ccc(OC)cc1", "GI50": "> 100 µM (inactive)"}
{"compound": "COC1OC2COC(c3ccccc3)OC2C(OC(=S)c2ccccc2)C1O (configuration not stated)", "GI50": "16.9 µM (inactive)"}
{"compound": "COCCCNc1nc(N)c(C#N)c(C#N)c1C#N", "GI50": "> 10 µM (inactive)"}
{"compound": "CCOc1ccc(NC(=O)CC#N)cc1", "GI50": "> 100 µM (inactive)"}
{"compound": "CC(NC(C)(C)C)C(=O)c1cccc(Cl)c1 (configuration not stated) [BUPROPION HYDROCHLORIDE]", "GI50": "> 100 µM (inactive)"}
